Target: human MCH receptor 1 (MCHR1) (Homo sapiens)
Construct: expressed in transfected cells; host or cells: CHO cell clone 57 (membrane fraction)
Experiment: human MCH receptor 1 (MCHR1) competitive binding assay with [125I]-MCH(4-19)
Conditions: test compound 0.1 μM, human MCHR1-expressing CHO cell membrane fraction, read-out: Binding inhibition rate % (0.1 μM)
Description: Determination of human MCH receptor 1 (MCHR1) competitive inhibitory activity of test compound using binding assay 1. Preparation of Membrane Fraction […] The MCHR1 ligand binding inhibitory activity of the test compound was determined as follows. An MCHR1-expressing CHO cell membrane fraction (173 μL) diluted with an assay buffer was dispensed to a 96 well polypropylene plate (3363, Corning). […] The binding inhibition rate of the test compound was calculated by the following formula. […]
Classification field: condition met = inhibition at 0.1 µM at or over 60%; condition not met = inhibition at 0.1 µM under 60%.

Please tell me: is the molecule CCC(O)(CC)[C@H]1C[C@H]1c1nc2ccc(-n3ccc(OCc4ccc(Cl)cc4)cc3=O)cc2n1C (racemic) [Example 206] at or over 60% in terms of inhibition at 0.1 µM?
condition met

Please tell me: is the molecule Cn1c(C2CC2)nc2ccc(-n3ccc(OCc4cc(Br)cs4)cc3=O)cc21 [Example 240] at or over 60% in terms of inhibition at 0.1 µM?
condition met

Please tell me: is the molecule Cn1c(C2CC2)nc2ccc(-n3ccc(OCc4cccs4)cc3=O)cc21 [Example 124] at or over 60% in terms of inhibition at 0.1 µM?
condition not met

Please tell me: is the molecule Cc1c(C2CC2)nc2ccc(-n3ccc(OCc4cccs4)cc3=O)cn12 [Example 132] at or over 60% in terms of inhibition at 0.1 µM?
condition not met

Please tell me: is the molecule Cn1c(C(=O)C2CC2)nc2ccc(-n3ccc(OCc4ccc(F)cc4)cc3=O)cc21 [Example 31] at or over 60% in terms of inhibition at 0.1 µM?
condition not met

Please tell me: is the molecule Cn1c([C@@H]2C[C@@H]2CO)nc2ccc(-n3ccc(OCc4ccc(Cl)cc4)cc3=O)cc21 (racemic) [Example 149] at or over 60% in terms of inhibition at 0.1 µM?
condition not met

Please tell me: is the molecule Cc1c(C2CC2)nc2ccc(-n3ccc(OCc4csc(Br)n4)cc3=O)cn12 [Example 189] at or over 60% in terms of inhibition at 0.1 µM?
condition met

---

biological target: human MCH receptor 1 (MCHR1) (Homo sapiens, UniProt Q99705); construct: expressed in transfected cells; host or cells: CHO cell clone 57 (membrane fraction); assay: human MCH receptor 1 (MCHR1) competitive binding assay with [125I]-MCH(4-19); details: test compound 0.1 μM, human MCHR1-expressing CHO cell membrane fraction, read-out: Binding inhibition rate % (0.1 μM)
Sequence (Q99705 whole entry): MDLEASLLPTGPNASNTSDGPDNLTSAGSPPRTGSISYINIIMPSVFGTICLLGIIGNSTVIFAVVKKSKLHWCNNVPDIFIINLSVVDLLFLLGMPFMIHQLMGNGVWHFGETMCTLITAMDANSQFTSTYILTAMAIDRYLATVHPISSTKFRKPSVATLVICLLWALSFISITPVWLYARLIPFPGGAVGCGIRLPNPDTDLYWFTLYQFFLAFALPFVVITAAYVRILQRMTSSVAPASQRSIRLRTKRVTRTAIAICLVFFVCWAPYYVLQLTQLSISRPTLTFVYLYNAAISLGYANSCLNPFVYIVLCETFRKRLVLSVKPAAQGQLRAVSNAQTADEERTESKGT
MEASUREMENT_KIND: inhibition at 0.1 µM (%)
Your answer is read as %, so omit the unit and give the number.

Look up inhibition at 0.1 µM: Cn1c(C2CC2)nc2ccc(-n3ccc(OCc4ccc(C(F)(F)F)o4)cc3=O)cc21 [Example 241]
56

Look up inhibition at 0.1 µM: Cn1c(C2CC2)nc2ccc(-n3ccc(COc4ccc(F)cc4)cc3=O)cc21 [Example 243]
38

Look up inhibition at 0.1 µM: CCc1nc2ccc(-n3ccc(OCc4csc(Cl)c4)cc3=O)cc2n1C [Example 226]
89

Look up inhibition at 0.1 µM: Cc1nc2ccc(-n3ccc(OCc4csc(Cl)c4)cc3=O)cn2c1C [Example 165]
81

Look up inhibition at 0.1 µM: CCc1nc2ccc(-n3ccc(OCc4nc(C(F)(F)F)cs4)cc3=O)cc2n1C [Example 261]
57

Look up inhibition at 0.1 µM: Cn1c(C2CC2)nc2ccc(-n3ccc(OCc4ccc(C(F)F)s4)cc3=O)cc21 [Example 248]
79

Look up inhibition at 0.1 µM: Cn1c(C2CC2)nc2ccc(-n3ccc(OCc4cc(F)cc(F)c4)cc3=O)cc21 [Example 119]
56

Look up inhibition at 0.1 µM: Cn1c(C2CC2)nc2ccc(-n3ccc(OCc4ccc(Cl)s4)cc3=O)cc21 [Example 121]
95

Look up inhibition at 0.1 µM: Cn1c(C2CC2)nc2ccc(-n3ccc(OCc4cc(Cl)cs4)cc3=O)cc21 [Example 228]
89

Look up inhibition at 0.1 µM: Cc1c(C2CC2)nc2ccc(-n3ccc(OCc4ccc(Cl)cc4)cc3=O)cn12 [Example 3]
88

Look up inhibition at 0.1 µM: Cc1c(C2CC2)nc2ccc(-n3ccc(OCc4ccc(F)cc4F)cc3=O)cn12 [Example 22]
81

Look up inhibition at 0.1 µM: CC1CC1c1nc2ccc(-n3ccc(OCc4ccc(Cl)cc4)cc3=O)cc2n1C (centres unmarked) [Example 90]
80

Look up inhibition at 0.1 µM: Cn1c(C2CC2)nc2ccc(-n3ccc(OCc4ccc(Cl)o4)cc3=O)cc21 [Example 202]
67

Look up inhibition at 0.1 µM: Cn1c(C2CC2)nc2ccc(-n3ccc(OCc4cc(C(F)(F)F)cs4)cc3=O)cc21 [Example 275]
75

---

For each of the compounds below, state its inhibition at 0.1 µM.
target: human MCH receptor 1 (MCHR1) (Homo sapiens); construct: expressed in transfected cells; host or cells: CHO cell clone 57 (membrane fraction); assay: human MCH receptor 1 (MCHR1) competitive binding assay with [125I]-MCH(4-19); details: test compound 0.1 μM, human MCHR1-expressing CHO cell membrane fraction, read-out: Binding inhibition rate % (0.1 μM)
Your answer is read as %, so omit the unit and give the number.

Look up inhibition at 0.1 µM: Cn1c(C2CC2)nc2ccc(-n3ccc(OCc4ccccc4F)cc3=O)cc21
72

Look up inhibition at 0.1 µM: Cn1c([C@H]2C[C@H]2F)nc2ccc(-n3ccc(OCc4ccc(Cl)cc4)cc3=O)cc21 (racemic)
69

Look up inhibition at 0.1 µM: Cn1c(C2CC2)nc2ccc(-n3ccc(OCc4ccc(F)s4)cc3=O)cc21
71

Look up inhibition at 0.1 µM: Cn1c([C@H]2C[C@H]2C#N)nc2ccc(-n3ccc(OCc4ccc(Cl)cc4)cc3=O)cc21 (racemic)
69

---

target: human MCH receptor 1 (MCHR1) (Homo sapiens); construct: expressed in transfected cells; host or cells: CHO cell clone 57 (membrane fraction); experiment: human MCH receptor 1 (MCHR1) competitive binding assay with [125I]-MCH(4-19); conditions: test compound 0.1 μM, human MCHR1-expressing CHO cell membrane fraction, read-out: Binding inhibition rate % (0.1 μM)
Classification field: fulfilled = inhibition at 0.1 µM at or over 60%; not fulfilled = inhibition at 0.1 µM under 60%.

Please tell me: is the compound Cc1ccc(COc2ccn(-c3ccc4nc(C5CC5)n(C)c4c3)c(=O)c2)cc1 at or over 60% in terms of inhibition at 0.1 µM?
fulfilled

Please tell me: is the compound CCc1nc2ccc(-n3ccc(OCc4csc(Cl)c4)cc3=O)cn2c1C at or over 60% in terms of inhibition at 0.1 µM?
fulfilled

Please tell me: is the compound CCc1nc2ccc(-n3ccc(OCc4ccc(Cl)cc4)cc3=O)cc2n1C at or over 60% in terms of inhibition at 0.1 µM?
fulfilled

Please tell me: is the compound Cc1nc2ccc(-n3ccc(OCc4ccc(F)cc4)cc3=O)cc2n1C at or over 60% in terms of inhibition at 0.1 µM?
not fulfilled

Please tell me: is the compound Cc1nc2ccc(-n3ccc(OCc4ccc(F)cc4)cc3=O)cn2c1C at or over 60% in terms of inhibition at 0.1 µM?
not fulfilled

Please tell me: is the compound CCCc1nc2ccc(-n3ccc(OCc4ccccc4)cc3=O)cc2n1C at or over 60% in terms of inhibition at 0.1 µM?
fulfilled

Please tell me: is the compound Cc1c(C2CC2)nc2ccc(-n3ccc(OCc4nc(C(F)(F)F)cs4)cc3=O)cn12 at or over 60% in terms of inhibition at 0.1 µM?
fulfilled

Please tell me: is the compound CCc1nc2ccc(-n3ccc(OCc4cc(C(F)(F)F)cs4)cc3=O)cc2n1C at or over 60% in terms of inhibition at 0.1 µM?
fulfilled

---

biological target: human MCHR1 (Homo sapiens); construct: expressed in transfected cells; host or cells: CHO dhfr- cells, clone #4; test: MCH receptor 1 antagonistic activity, Ca2+ mobilization assay; type: cell-based; details: CHO, test compound 0.1 μM; human MCHR1-expressing CHO cells (clone #4); ligand MCH(4-19) 2 nM; read-out: Inhibitory rate % (0.1 μM)
Sequence (Q99705 whole entry): as above
Counter-ions that a name gives are not always drawn.
MEASUREMENT_KIND: inhibition at 0.1 µM
Put your answer as a value accompanied by its unit after it.

// map Cc1c(C2CC2)nc2ccc(-n3ccc(OCc4nc(Br)cs4)cc3=O)cn12 to recorded inhibition at 0.1 µM (system: human MCHR1 (Homo sapiens))
100%

// map Cn1c(C2CC2)nc2ccc(-n3ccc(OCc4ccc(Cl)s4)cc3=O)cc21 to recorded inhibition at 0.1 µM (system: human MCHR1 (Homo sapiens))
96%

// map Cc1c(C2CC2)nc2ccc(-n3ccc(OCc4ccc(Br)cc4)cc3=O)cn12 to recorded inhibition at 0.1 µM (system: human MCHR1 (Homo sapiens))
98%

// map CCc1nc2ccc(-n3ccc(OCc4csc(C(F)(F)F)c4)cc3=O)cc2n1C to recorded inhibition at 0.1 µM (system: human MCHR1 (Homo sapiens))
97%

// map CCc1nc2ccc(-n3ccc(OCc4nc(C(F)F)cs4)cc3=O)cc2n1C to recorded inhibition at 0.1 µM (system: human MCHR1 (Homo sapiens))
83%

// map Cc1c(C2CC2)nc2ccc(-n3ccc(OCc4ccc(F)cn4)cc3=O)cn12 [Example 291, hydrochloride] to recorded inhibition at 0.1 µM (system: human MCHR1 (Homo sapiens))
98%

// map Cn1c(C2CC2)nc2ccc(-n3ccc(OCc4cc(C(F)(F)F)cs4)cc3=O)cc21 to recorded inhibition at 0.1 µM (system: human MCHR1 (Homo sapiens))
89%

// map Cc1c(C2CC2)nc2ccc(-n3ccc(NCc4ccc(Cl)cc4)cc3=O)cn12 to recorded inhibition at 0.1 µM (system: human MCHR1 (Homo sapiens))
74%

// map Cc1c(C2CC2)nc2ccc(-n3ccc(OCc4csc(Cl)c4)cc3=O)cn12 to recorded inhibition at 0.1 µM (system: human MCHR1 (Homo sapiens))
102%

// map Cn1c(CC2CC2)nc2ccc(-n3ccc(OCc4ccc(F)cc4)cc3=O)cc21 to recorded inhibition at 0.1 µM (system: human MCHR1 (Homo sapiens))
90%

// map Cn1c(C2CC2)nc2ccc(-n3ccc(OCc4ccc(Br)o4)cc3=O)cc21 to recorded inhibition at 0.1 µM (system: human MCHR1 (Homo sapiens))
100%

// map Cc1c(C2CC2)nc2ccc(-n3ccc(OCc4nc(C(F)(F)F)cs4)cc3=O)cn12 to recorded inhibition at 0.1 µM (system: human MCHR1 (Homo sapiens))
99%

// map Cn1c(C2CC2)nc2ccc(-n3ccc(OCc4nc(C(F)F)cs4)cc3=O)cc21 to recorded inhibition at 0.1 µM (system: human MCHR1 (Homo sapiens))
99%

// map Cn1c(C2CC2)nc2ccc(-n3ccc(OCc4cc(Cl)cs4)cc3=O)cc21 to recorded inhibition at 0.1 µM (system: human MCHR1 (Homo sapiens))
103%

// map Cc1c(C2CC2)nc2ccc(-n3ccc(OCc4ccc(C(F)(F)F)s4)cc3=O)cn12 to recorded inhibition at 0.1 µM (system: human MCHR1 (Homo sapiens))
105%

// map Cn1c(C2CC2)nc2ccc(-n3ccc(OCc4ccc(F)s4)cc3=O)cc21 to recorded inhibition at 0.1 µM (system: human MCHR1 (Homo sapiens))
95%

// map Cn1c(C2CC2)nc2ccc(-n3ccc(OCc4csc(C(F)(F)F)c4)cc3=O)cc21 to recorded inhibition at 0.1 µM (system: human MCHR1 (Homo sapiens))
85%

// map Cn1c(C2CC2)nc2ccc(-n3ccc(OCc4ccsc4)cc3=O)cc21 to recorded inhibition at 0.1 µM (system: human MCHR1 (Homo sapiens))
80%

// map Cc1nc2ccc(-n3ccc(OCc4ccccc4)cc3=O)cc2n1C to recorded inhibition at 0.1 µM (system: human MCHR1 (Homo sapiens))
100%

// map Cn1c(C2CC2(F)F)nc2ccc(-n3ccc(OCc4ccc(Cl)cc4)cc3=O)cc21 (centres unmarked) to recorded inhibition at 0.1 µM (system: human MCHR1 (Homo sapiens))
57%

// map Cc1c(C2CC2)nc2ccc(-n3ccc(OCc4ccc(F)s4)cc3=O)cn12 to recorded inhibition at 0.1 µM (system: human MCHR1 (Homo sapiens))
90%

// map Cn1c(C2CC2)nc2ccc(-n3ccc(OCc4cccs4)cc3=O)cc21 to recorded inhibition at 0.1 µM (system: human MCHR1 (Homo sapiens))
80%

// map Cc1c(C2CC2)nc2ccc(-n3ccc(OCc4ccccc4)cc3=O)cn12 to recorded inhibition at 0.1 µM (system: human MCHR1 (Homo sapiens))
101%

// map Cn1c(C2CC2)nc2ccc(-n3ccc([C@@H]4C[C@H]4c4ccc(Cl)cc4)cc3=O)cc21 (racemic) to recorded inhibition at 0.1 µM (system: human MCHR1 (Homo sapiens))
69%

// map CCc1nc2ccc(-n3ccc(OCc4cc(C(F)(F)F)cs4)cc3=O)cc2n1C to recorded inhibition at 0.1 µM (system: human MCHR1 (Homo sapiens))
97%

// map Cn1c(C2CC2)nc2ccc(-n3ccc(OCc4ccc(Br)cn4)cc3=O)cc21 to recorded inhibition at 0.1 µM (system: human MCHR1 (Homo sapiens))
104%
